# target_or_test_system: TrCel7A (Trichoderma reesei, UniProt P62694, D231N)
# protocol_description: intrinsic protein fluorescence quenching titration
measured_quantity: Kd (µM)
Numbers only, in µM.

Report Kd for O=[N+]([O-])c1ccccc1O[C@@H]1O[C@H](CO)[C@@H](O[C@@H]2O[C@H](CO)[C@@H](O)[C@H](O)[C@H]2O)[C@H](O)[C@H]1O [oNPC, o-nitrophenyl-β-D-cellobioside]
7.1

====

Target sequence: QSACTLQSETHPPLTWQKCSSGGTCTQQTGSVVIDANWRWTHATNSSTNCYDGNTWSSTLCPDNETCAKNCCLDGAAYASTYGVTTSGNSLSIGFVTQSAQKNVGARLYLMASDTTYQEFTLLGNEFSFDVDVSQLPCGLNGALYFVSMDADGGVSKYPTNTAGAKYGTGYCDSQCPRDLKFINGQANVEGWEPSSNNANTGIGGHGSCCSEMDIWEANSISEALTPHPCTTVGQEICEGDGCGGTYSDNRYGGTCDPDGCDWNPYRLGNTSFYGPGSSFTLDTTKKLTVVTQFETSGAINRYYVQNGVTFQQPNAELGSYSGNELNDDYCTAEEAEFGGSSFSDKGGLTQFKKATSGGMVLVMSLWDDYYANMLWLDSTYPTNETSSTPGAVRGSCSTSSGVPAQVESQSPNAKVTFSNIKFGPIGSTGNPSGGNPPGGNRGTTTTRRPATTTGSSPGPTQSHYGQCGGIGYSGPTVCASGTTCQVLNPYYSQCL
measured_quantity: Kd (µM)
Answers are plain numbers, in µM.

Report Kd for O=[N+]([O-])c1ccccc1O[C@@H]1O[C@H](CO)[C@@H](O[C@@H]2O[C@H](CO)[C@@H](O)[C@H](O)[C@H]2O)[C@H](O)[C@H]1O [oNPC, o-nitrophenyl-β-D-cellobioside]
7.4

====

# target_or_test_system: PcCel7D (Phanerodontia chrysosporium, UniProt Q7LIJ0)
# Sequence (Q7LIJ0 19-510): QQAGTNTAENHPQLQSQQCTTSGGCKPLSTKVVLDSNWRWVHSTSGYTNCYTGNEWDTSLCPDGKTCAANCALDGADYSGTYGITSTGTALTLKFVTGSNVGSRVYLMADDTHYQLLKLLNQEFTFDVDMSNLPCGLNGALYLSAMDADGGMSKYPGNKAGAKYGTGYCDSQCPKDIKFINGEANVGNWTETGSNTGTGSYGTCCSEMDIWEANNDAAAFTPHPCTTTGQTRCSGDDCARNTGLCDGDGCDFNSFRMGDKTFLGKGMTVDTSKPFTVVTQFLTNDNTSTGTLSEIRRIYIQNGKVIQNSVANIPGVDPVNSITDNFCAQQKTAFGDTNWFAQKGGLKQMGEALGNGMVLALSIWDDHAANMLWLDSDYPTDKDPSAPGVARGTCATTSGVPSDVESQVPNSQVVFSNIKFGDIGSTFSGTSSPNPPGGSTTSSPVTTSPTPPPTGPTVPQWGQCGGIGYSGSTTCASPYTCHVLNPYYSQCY
# protocol_description: inhibition of pNPL hydrolysis, absorbance of pNP at […] nm
# Assay type: biochemical
# measurement_context: read-out: K i for lactose (μM) ^b; pNPL as substrate, 0.2 mM lactose; competitive; 10 mM sodium acetate, pH 5.0, 20 °C
measured_quantity: Ki (µM)
Answers are plain numbers, in µM.

Report Ki for OC[C@H]1O[C@@H](O[C@H]2[C@H](O)[C@@H](O)C(O)O[C@@H]2CO)[C@H](O)[C@@H](O)[C@H]1O (stereo partly shown)
183

====

# target_or_test_system: TrCel7A (Trichoderma reesei, UniProt P62694)
# protocol_description: inhibition of pNPL hydrolysis, absorbance of pNP at […] nm
# Type: biochemical
# measurement_context: read-out: K i for lactose (μM) ^b; pNPL as substrate, 0.2 mM lactose; competitive; 10 mM sodium acetate, pH 5.0, 20 °C
measured_quantity: Ki (µM)
Numbers only, in µM.

Report Ki for OC[C@H]1O[C@@H](O[C@H]2[C@H](O)[C@@H](O)C(O)O[C@@H]2CO)[C@H](O)[C@@H](O)[C@H]1O (stereo partly shown)
180

====

# target_or_test_system: TrCel7A (Trichoderma reesei, UniProt P62694)
# Sequence (P62694 18-513): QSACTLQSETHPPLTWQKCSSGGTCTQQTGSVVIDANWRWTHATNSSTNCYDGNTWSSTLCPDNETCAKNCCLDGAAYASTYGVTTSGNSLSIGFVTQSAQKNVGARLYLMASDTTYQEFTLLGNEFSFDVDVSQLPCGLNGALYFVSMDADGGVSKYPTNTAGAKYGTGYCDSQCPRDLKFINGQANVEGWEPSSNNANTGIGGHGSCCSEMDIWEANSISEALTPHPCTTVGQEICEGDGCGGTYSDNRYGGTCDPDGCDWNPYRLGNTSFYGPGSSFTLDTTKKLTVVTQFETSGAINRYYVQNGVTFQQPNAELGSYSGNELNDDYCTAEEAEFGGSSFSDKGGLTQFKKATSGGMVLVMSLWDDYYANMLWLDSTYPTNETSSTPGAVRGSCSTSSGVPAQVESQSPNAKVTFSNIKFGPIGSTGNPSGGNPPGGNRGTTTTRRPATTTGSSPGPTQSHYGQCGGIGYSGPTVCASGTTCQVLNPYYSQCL
# protocol_description: inhibition of MUC hydrolysis, fluorometric
# Format: biochemical
measured_quantity: pKi
Give bare numbers, as −log10 of the molar value.

Give pKi for O=[N+]([O-])c1ccccc1O[C@@H]1O[C@H](CO)[C@@H](O[C@@H]2O[C@H](CO)[C@@H](O)[C@H](O)[C@H]2O)[C@H](O)[C@H]1O [oNPC, o-nitrophenyl-β-D-cellobioside] tested on TrCel7A (Trichoderma reesei, UniProt P62694).
5.25
